Assignment: determine reported EC50 for the given compounds.
Target: full-length beta-catenin (Axin site) (Homo sapiens)
Construct: 15 nM full-length beta-catenin, 20 nM FITC labeled peptide in buffer
Sequence (P35222 whole entry): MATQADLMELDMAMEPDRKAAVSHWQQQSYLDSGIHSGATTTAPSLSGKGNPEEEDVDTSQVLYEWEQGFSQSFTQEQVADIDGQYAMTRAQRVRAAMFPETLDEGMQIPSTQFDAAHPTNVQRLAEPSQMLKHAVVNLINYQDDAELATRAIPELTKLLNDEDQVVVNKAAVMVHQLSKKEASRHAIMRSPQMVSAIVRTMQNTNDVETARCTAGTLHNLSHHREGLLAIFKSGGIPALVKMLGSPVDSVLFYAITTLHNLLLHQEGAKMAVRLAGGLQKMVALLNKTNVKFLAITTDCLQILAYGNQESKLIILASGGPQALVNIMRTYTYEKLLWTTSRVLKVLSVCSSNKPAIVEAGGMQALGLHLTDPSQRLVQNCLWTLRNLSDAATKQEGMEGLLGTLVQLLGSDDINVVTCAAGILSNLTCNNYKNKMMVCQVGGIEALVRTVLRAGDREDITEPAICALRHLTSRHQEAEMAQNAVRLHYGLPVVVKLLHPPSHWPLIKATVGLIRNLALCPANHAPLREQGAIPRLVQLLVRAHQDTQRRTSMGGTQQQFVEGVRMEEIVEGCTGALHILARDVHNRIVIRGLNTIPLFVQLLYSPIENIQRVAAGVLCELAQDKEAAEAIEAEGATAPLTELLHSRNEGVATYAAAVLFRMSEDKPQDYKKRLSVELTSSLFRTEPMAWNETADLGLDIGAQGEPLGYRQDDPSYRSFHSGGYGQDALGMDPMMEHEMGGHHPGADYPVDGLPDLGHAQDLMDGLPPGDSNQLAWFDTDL
Test: Competition fluorescence polarization assay (Axin site probe)
Format: binding
Conditions: competition fluorescence polarization, Table 2; read-out: in vitro FP EC50

Which EC50 is listed for CC[C@H](C)[C@@H]1NC(=O)[C@H](Cc2c[nH]cn2)NC(=O)[C@H](C)NC(=O)[C@H](CC(=O)O)NC(=O)[C@H](CC(C)C)NC(=O)[C@H]([C@@H](C)CC)NC(=O)[C@](C)(NC(=O)[C@H](C)NC(C)=O)CCCCCCC=CCOC(=O)N2CC[C@@](C(=O)N[C@@H](CCCNC(=N)N)C(=O)N[C@H](C(=O)N[C@@](C)(Cc3c[nH]c4ccccc34)C(N)=O)C(C)C)(C2)NC1=O [FP0631c, Ac-A-R8-I-L-D-A-H-I-MB-R-V-aMeW-NH2] ?
0.5 to 5 µM

Consider next the compound CC[C@H](C)[C@@H]1NC(=O)[C@H](Cc2ccco2)NC(=O)[C@H](C)NC(=O)[C@H](CC(=O)O)NC(=O)[C@H](CC(C)C)NC(=O)[C@H]([C@@H](C)CC)NC(=O)[C@](C)(NC(=O)[C@H](C)NC(C)=O)CCCCCCC=CCOC(=O)N2CC[C@@](C(=O)N[C@@H](CCCNC(=N)N)C(=O)N[C@H](C(=O)N[C@@H](Cc3c[nH]c4ccccc34)C(N)=O)C(C)C)(C2)NC1=O [FP0541c, Ac-A-R8-I-L-D-A-fur-I-MB-R-V-W-NH2] in the same way.
> 5 µM

Consider next the compound CC[C@H](C)[C@@H]1NC(=O)[C@]2(NC(=O)[C@H](CCC(N)=O)NC(=O)[C@@H]3CCCN3C(C)=O)CCN(CC=CCCCCC[C@@](C)(C(=O)N[C@@H](Cc3c[nH]cn3)C(=O)N[C@H](C(=O)N[C@@H](CCCNC(=N)N)C(=O)N[C@@H](CCCNC(=N)N)C(=O)N[C@H](C(=O)N[C@@H](Cc3c[nH]c4ccccc34)C(=O)N[C@@H](CCCNC(=N)N)C(N)=O)C(C)C)C(C)C)NC(=O)[C@H](CC(=O)O)NC(=O)[C@H](CC(C)C)NC1=O)C2 (single isomer, unassigned) [FP0753a, Ac-P-Q-MB-I-L-D-S7-H-V-R-R-V-W-R-NH2] in the same way.
> 5 µM

Consider next the compound CC[C@H](C)[C@@H]1NC(=O)[C@H](Cc2ccccn2)NC(=O)[C@H](C)NC(=O)[C@H](CC(=O)O)NC(=O)[C@H](CC(C)C)NC(=O)[C@H]([C@@H](C)CC)NC(=O)[C@](C)(NC(=O)[C@H](C)NC(C)=O)CCCCCCC=CCOC(=O)N2CC[C@@](C(=O)N[C@H](C(=O)N[C@H](C(=O)N[C@@H](Cc3c[nH]c4ccccc34)C(N)=O)C(C)C)[C@@H](C)CC)(C2)NC1=O (single isomer, unassigned) [FP0556c Isomer 1, Ac-A-R8-I-L-D-A-2pyr-I-MB-I-V-W-NH2] in the same way.
> 5 µM

Consider next the compound CC[C@H](C)[C@@H]1NC(=O)[C@H](Cc2c[nH]cn2)NC(=O)[C@H](C)NC(=O)[C@H](CC(=O)O)NC(=O)[C@H](CC(C)C)NC(=O)[C@H]([C@@H](C)CC)NC(=O)[C@](C)(NC(=O)[C@H](C)NC(C)=O)CCCCCCC=CCOC(=O)N2CC[C@@](C(=O)N[C@@H](CCCNC(=N)N)C(=O)N[C@H](C(=O)N[C@@H](Cc3c[nH]c4ccccc34)C(N)=O)C(C)C)(C2)NC1=O (single isomer, unassigned) [FPO217c Isomer 2, Ac-AR8ILDAHIMBRVW (SEQ ID NO: 280)] in the same way.
< 0.1 µM
